molecular target: mouse TLR7 (Mus musculus); assay: Short-term in vivo (STIV) assay: oral dosing, R848 s.c., plasma IL-6; design: female BALB/c mice (Jackson Labs, Bar Harbor, Me.) were dosed by oral gavage; tissue Jackson Labs; host or cells: living female BALB/c mice; plasma IL-6 after s.c. R848; settings: 24 h; 300 mg/kg
// boundary case: % Suppression vs. Vehicle equal to 80% maps to not satisfied; strictly smaller maps to satisfied

compound="CC1CN(c2ccc(C#N)c3ncccc23)CC(CN2CCC(NC(=O)C(C)C)CC2)O1 (centres unmarked)" subject_of_test="mouse TLR7 (Mus musculus)" answer_label="not satisfied"
compound="CC1CN(c2ccc(C#N)c3ncccc23)CC(C(=O)N2CC3(CCNC3)C2)O1 (centres unmarked)" subject_of_test="mouse TLR7 (Mus musculus)" answer_label=satisfied
compound="CCNC(=O)C1CN(c2ccc(C#N)c3ncccc23)CC(C)O1 (centres unmarked)" subject_of_test="mouse TLR7 (Mus musculus)" answer_label="not satisfied"
compound="CC1CN(c2ccc(C#N)c3ncccc23)CC(C(=O)NCC2CCCN2)O1 (centres unmarked)" subject_of_test="mouse TLR7 (Mus musculus)" answer_label=satisfied

###

target: mouse TLR7 (Mus musculus); assay: Short-term in vivo (STIV) assay: oral dosing, R848 s.c., plasma IL-6; set-up: female BALB/c mice (Jackson Labs, Bar Harbor, Me.) were dosed by oral gavage; tissue Jackson Labs; host or cells: living female BALB/c mice; plasma IL-6 after s.c. R848; conditions: 6 h; 11 mg/kg
Under this convention, yes (1) denotes % Suppression vs. Vehicle strictly below 80% and no (0) denotes % Suppression vs. Vehicle at or above 80%.

compound=C[C@@H]1CN(c2ccc(C#N)c3ncccc23)C[C@H](CNC2CCCC2)O1 answer_label="yes (1)"
compound=C[C@@H]1CN(c2ccc(C#N)c3ncccc23)C[C@H](CN2CCC(N3CCCC3)CC2)O1 answer_label="no (0)"
compound=C[C@@H]1CN(c2ccc(C#N)c3ncccc23)C[C@H](CNC2CCCCC2)O1 answer_label="yes (1)"
compound="CC1CN(c2ccc(C#N)c3ncccc23)CC(C(=O)NC2CCOCC2)O1 (centres unmarked)" answer_label="no (0)"

###

Molecular target: mouse TLR7 (Mus musculus, UniProt P58681)
Sequence (P58681 27-1050): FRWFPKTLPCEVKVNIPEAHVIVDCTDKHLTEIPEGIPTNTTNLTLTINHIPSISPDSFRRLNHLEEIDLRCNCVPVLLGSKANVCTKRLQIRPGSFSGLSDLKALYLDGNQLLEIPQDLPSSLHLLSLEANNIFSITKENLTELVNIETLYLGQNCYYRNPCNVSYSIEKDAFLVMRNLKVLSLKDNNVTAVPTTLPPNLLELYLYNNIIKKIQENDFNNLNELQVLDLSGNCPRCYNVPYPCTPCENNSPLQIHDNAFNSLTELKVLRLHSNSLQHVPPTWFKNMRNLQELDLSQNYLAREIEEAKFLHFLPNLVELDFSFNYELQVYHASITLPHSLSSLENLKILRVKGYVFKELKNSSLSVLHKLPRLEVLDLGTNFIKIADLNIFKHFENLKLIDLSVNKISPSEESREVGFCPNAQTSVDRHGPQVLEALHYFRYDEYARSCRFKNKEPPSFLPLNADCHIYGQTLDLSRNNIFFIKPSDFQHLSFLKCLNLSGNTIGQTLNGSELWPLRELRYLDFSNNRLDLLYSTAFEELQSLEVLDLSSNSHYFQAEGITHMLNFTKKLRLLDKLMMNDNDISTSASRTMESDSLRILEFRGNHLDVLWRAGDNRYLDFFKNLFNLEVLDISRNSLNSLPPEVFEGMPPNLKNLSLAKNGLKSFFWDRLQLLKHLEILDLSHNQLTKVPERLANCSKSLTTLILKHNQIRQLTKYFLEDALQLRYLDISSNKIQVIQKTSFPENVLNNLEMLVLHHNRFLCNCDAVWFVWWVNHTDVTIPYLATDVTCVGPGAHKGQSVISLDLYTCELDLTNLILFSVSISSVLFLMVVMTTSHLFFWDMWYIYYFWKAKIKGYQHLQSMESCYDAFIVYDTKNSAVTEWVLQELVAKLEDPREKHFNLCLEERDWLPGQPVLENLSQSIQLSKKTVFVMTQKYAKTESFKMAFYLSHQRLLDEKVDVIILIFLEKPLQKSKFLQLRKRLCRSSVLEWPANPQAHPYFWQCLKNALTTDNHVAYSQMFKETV
Assay: Short-term in vivo (STIV) assay: oral dosing, R848 s.c., plasma IL-6
Parameters: female BALB/c mice (Jackson Labs, Bar Harbor, Me.) were dosed by oral gavage; tissue Jackson Labs; host or cells: living female BALB/c mice; plasma IL-6 after s.c. R848
Details: 19 h; 33 mg/kg
Some compounds, each annotated with its measured % Suppression vs. Vehicle.
Parameter: % Suppression vs. Vehicle (%)

compound="CC1CN(c2ccc(C#N)c3ncccc23)CC(CN2CCC(N3CCCCC3)C2)O1.Cl.Cl (stereo not drawn)" result_number=0
compound=CC[C@H]1CN(C[C@H]2CN(c3ccc(C#N)c4ncccc34)C[C@@H](C)O2)CCN1C result_number=0
compound=C[C@@H]1CN(c2ccc(C#N)c3ncccc23)C[C@H](CNC2CCCC2)O1 result_number=0
compound="CC1CN(c2ccc(C#N)c3ncccc23)CC(CN2CCC(NC(=O)C(C)C)CC2)O1 (stereo not drawn)" result_number=0
compound=C[C@@H]1CN(c2ccc(C#N)c3ncccc23)C[C@H](CN2CCC(N3CCCC3)CC2)O1 result_number=89
compound=C[C@@H]1CN(c2ccc(C#N)c3ncccc23)C[C@H](CNC2CCCCC2)O1 result_number=0
compound="CC1CN(c2ccc(C#N)c3ncccc23)CC(CN2CCNCC2C)O1 (stereo not drawn)" result_number=63
compound=COc1cccnc1NC[C@H]1CN(c2ccc(C#N)c3ncccc23)C[C@@H](C)O1 result_number=0
compound=C[C@@H]1CN(c2ccc(C#N)c3ncccc23)C[C@H](CNc2ccccn2)O1 result_number=0

###

Target: mouse TLR7 (Mus musculus, UniProt P58681)
Sequence (P58681 27-1050): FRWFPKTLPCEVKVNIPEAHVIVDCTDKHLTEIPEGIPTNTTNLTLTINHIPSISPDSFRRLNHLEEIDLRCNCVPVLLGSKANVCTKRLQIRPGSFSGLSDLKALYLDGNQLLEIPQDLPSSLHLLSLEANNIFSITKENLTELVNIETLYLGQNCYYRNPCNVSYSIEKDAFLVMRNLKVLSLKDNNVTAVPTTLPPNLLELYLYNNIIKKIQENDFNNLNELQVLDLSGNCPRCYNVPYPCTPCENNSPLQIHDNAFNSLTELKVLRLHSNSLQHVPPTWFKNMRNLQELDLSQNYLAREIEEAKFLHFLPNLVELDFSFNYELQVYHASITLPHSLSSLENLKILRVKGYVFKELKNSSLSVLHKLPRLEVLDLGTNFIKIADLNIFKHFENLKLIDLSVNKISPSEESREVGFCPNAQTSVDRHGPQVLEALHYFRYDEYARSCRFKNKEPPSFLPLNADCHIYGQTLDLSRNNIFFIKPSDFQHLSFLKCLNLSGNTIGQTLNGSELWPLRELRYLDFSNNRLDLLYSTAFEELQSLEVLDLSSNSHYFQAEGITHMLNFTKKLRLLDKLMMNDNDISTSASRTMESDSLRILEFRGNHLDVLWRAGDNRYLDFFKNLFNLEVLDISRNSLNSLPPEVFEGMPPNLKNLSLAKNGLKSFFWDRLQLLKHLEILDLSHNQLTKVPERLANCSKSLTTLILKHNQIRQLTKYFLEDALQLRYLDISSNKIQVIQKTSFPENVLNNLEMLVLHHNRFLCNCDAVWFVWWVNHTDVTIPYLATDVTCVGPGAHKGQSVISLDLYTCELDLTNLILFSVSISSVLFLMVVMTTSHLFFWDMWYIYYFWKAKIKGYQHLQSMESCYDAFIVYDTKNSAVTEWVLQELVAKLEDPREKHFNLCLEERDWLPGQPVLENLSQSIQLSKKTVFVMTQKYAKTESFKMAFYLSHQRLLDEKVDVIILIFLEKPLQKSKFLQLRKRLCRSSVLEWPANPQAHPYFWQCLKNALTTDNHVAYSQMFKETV
Assay: Short-term in vivo (STIV) assay: oral dosing, R848 s.c., plasma IL-6
Set-up: female BALB/c mice (Jackson Labs, Bar Harbor, Me.) were dosed by oral gavage; tissue Jackson Labs; host or cells: living female BALB/c mice; plasma IL-6 after s.c. R848
Conditions: 6 h; 100 mg/kg
# % Suppression vs. Vehicle >= 70% gives 1.0, anything below gives 0.0

compound="CC1CN(c2ccc(C#N)c3ncccc23)CC(CN2CC(N3CCCC3)C2)O1 (centres unmarked) [ER-889469]" answer_label=1.0
compound="C[C@@H]1CN(c2ccc(C#N)c3ncccc23)C[C@H](CN2CCN(C)CC2)O1 [ER-887723]" answer_label=1.0
compound="CC1CN(c2ccc(C#N)c3ncccc23)CC(CN2CCCC2CO)O1 (centres unmarked) [ER-886814]" answer_label=1.0
compound="C[C@@H]1CN(c2ccc(C#N)c3ncccc23)C[C@H](C(=O)N[C@@H]2CNC[C@@H]2F)O1.Cl [ER-899745]" answer_label=1.0
compound="C[C@@H]1CN(c2ccc(C#N)c3ncccc23)C[C@H](CN2CCCN(C)CC2)O1 [ER-889601]" answer_label=1.0
compound="C[C@@H]1CN(c2ccc(C#N)c3ncccc23)C[C@H](CNc2ccccn2)O1 [ER-886788]" answer_label=0.0
compound="C[C@@H]1CN(c2ccc(C#N)c3ncccc23)C[C@H](C(=O)NC2CCN(CC(N)=O)CC2)O1 [ER-899481]" answer_label=0.0
compound="C[C@@H]1CN(c2ccc(C#N)c3ncccc23)C[C@H](C(=O)NC2(C)CCNCC2)O1 [ER-899718]" answer_label=1.0
